Target: T1, Cynomolgus monkey glycophorin A on Cynomolgus monkey red blood cells (Cynomolgus monkey)
T1 construct: whole, on cells; also called Cyno RBC; Cyno GPA
Experiment: FACS, Cyno RBC
observed property: FACS signal

1) 7G4E9/A8 (antibody, V domains shown, as m8) VH: QVQLKESGPGLVAPSQSLSITCTVSGFSLTRFGISWVRQPPGKGLEWMGVIWGDGSTDYHSALISRLSITKDNSKSQVFFRLNSLQSDDSATYYCARSFGMDYWGQGTSVTVSS VL: NIMMTQSPSSLAVSAGEKVTMSCKSSQSILNSSNQKNYLAWYQQKPGQSPKLLIYWASTRESGVPDRFTGSGSGTDFTLTISSVQAEDLAVYYCHQYFSSRTFGGGTKLEIK | 8 relative flourescence units
2) 8F9E9/F11 (antibody, V domains shown, as m8) VH: QVQLQQSGAELARPGASVKMSCKASGYTFTSYSIHWIKQRPGQSLEWIGYINPNSDYANYNQKFKDKATLTTDKSSTTAYMQLSSLTTDDSAVYYCQTGTRDYWGQGTTLTVSS VL: HIVLTQSPAIMSASPGEKVTIICSARSSVSYMYWFQQKPGTSPKLWIYATSSLPSGVPARFSGSGSGTSYSLTISRMEAEDAATYYCHQRSSYPYTFGSGTKLEIK | 284 relative flourescence units

Attention now turns to another entry.
[ask] // returns reported FACS signal for input 10F1B10/F3 (antibody, V domains shown, as m8) VH: QVQLLQSGAELARPGASVRISCKASGYTFTRYAMHWVKQRPGQGLEWIGYINPGTFSTNYNQKFKDRATLTADKSSSTAYMQLNSLTSEDSAVYYCQTGTRDYWGQGTTLTVSS VL: QIVLTQSPPIMSASPGEKVTITCSAASSVSYIYWFQQKPGTSPKLWIYSTSSLPSGVPTRFSGSGSGTSYSLTISRMEAEDAATYYCHQRSSYPFTFGSGTKLEIR
[reply] 280 relative flourescence units
